# target_desc: T1, ErbB4 (Rattus norvegicus, UniProt Q62956)
# T1 construct: forming the ErbB2/ErbB4 complex in cardiomyocytes and the ErbB2/ErbB3 complex in Schwann cells; endogenous in cells; host or cells: primary neonatal rat cardiomyocytes (Sprague Dawley pups, 0 to 4 days old)
# experiment_notes: In vitro phosphorylation of Akt in neonatal rat cardiomyocytes
# Type: cell-based
# measurement_context: ratio of EC50s Schwann cells/cardiomyocytes
readout_name: Selectivity SC/CM

Return Selectivity SC/CM (reported value) for this molecule: huNRG1(S177-S228)(NRGE1C)::3x(G4Q)::huFcSEFL2 (Pb): Fc fusion of NRG1 variant SEQ ID NO:116 (protein, huNRG1(S177-S228)(NRGE1C)::3x(G4Q)::huFcSEFL2 (Pb)) STYRCVSVLTVLHQDWLNGKEYKCKVSNKALPAPIEKTISKAKGQPREPQVYTLPPSREEMTKNQVSLTCLVKGFYPSDIAVEWESNGQPENNYKTTPPVLDSDGSFFLYSKLTVDKSRWQQGNVFSCSVMHEALHNHYTQKSLSLSPGK 53

Return Selectivity SC/CM (reported value) for this molecule: huNRG1(S177-F229)(NRGE1C) (E47S_D48T_F49R_M50V) 6xHis: 6xHis-tagged NRG1 variant SEQ ID NO:123 (protein, 6xHis tag; huNRG1(S177-F229)(NRGE1C) (E47S_D48T_F49R_M50V) 6xHis) SHLVKCGEKHKSFCVNGGECFMIEGPSNPSRYLCKCPNEFTGDRCQSTRVASFGGGGEGGGGAGGGGHHHHHH >10000

Return Selectivity SC/CM (reported value) for this molecule: huNRG1(S177-F229)(NRGE1C) (E47A_D48P_F49H_M50I) 6xHis: 6xHis-tagged NRG1 variant SEQ ID NO:119 (protein, 6xHis tag; huNRG1(S177-F229)(NRGE1C) (E47A_D48P_F49H_M50I) 6xHis) SHLVKCGEKHKSFCVNGGECFMIEGPSNPSRYLCKCPNEFTGDRCQAPHIASFGGGGEGGGGAGGGGHHHHHH >10000

Return Selectivity SC/CM (reported value) for this molecule: huNRG1(S177-F229) 6xHis: 6xHis-tagged NRG1 fragment S177-F229 without variant mutations (protein, 6xHis tag; huNRG1(S177-F229) 6xHis, 6xHis-tagged NRG1 fragment S177-F229 without variant mutations) SHLVKCAEKEKTFCVNGGECFMVKDLSNPSRYLCKCPNEFTGDRCQNYVMASFGGGGEGGGGAGGGGHHHHHH 6.165

Return Selectivity SC/CM (reported value) for this molecule: huNRG1(S177-F229)(NRGE1D) (E47T_D48S_F49L_M50L) 6xHis: 6xHis-tagged NRG1 variant SEQ ID NO:129 (protein, 6xHis tag; huNRG1(S177-F229)(NRGE1D) (E47T_D48S_F49L_M50L) 6xHis) SHLVKCGESHKSFCVNGGECYMVEGSSIPSRYLCKCPNEFTGDRCQTSLLASFGGGGEGGGGAGGGGHHHHHH >10000

Return Selectivity SC/CM (reported value) for this molecule: huNRG1(S177-F229)(NRGE1D) (E47S_D48S_F49E_M50L) 6xHis: 6xHis-tagged NRG1 variant SEQ ID NO:128 (protein, 6xHis tag; huNRG1(S177-F229)(NRGE1D) (E47S_D48S_F49E_M50L) 6xHis) SHLVKCGESHKSFCVNGGECYMVEGSSIPSRYLCKCPNEFTGDRCQSSELASFGGGGEGGGGAGGGGHHHHHH >10000
